System: rainbow trout (Oncorhynchus mykiss)
Procedure Text: Contribution of tissues to fish body burden
Assay type: in vivo
Experimental Parameters: fraction, Fish #5
// Contribution of Blood to the fish's body burden lookup, one value per entry
Measured Quantity: Contribution of Blood to the fish's body burden

CCCCCCCCCCCCCN [P13, tridecylamine]    0.013
CCCCCCCCCN(C)C [T9, N,N-dimethylnonylamine]    0.056
CCCCCCCCCN [P9, Nonylamine]    0.012
CCCCCCCCCCCCN [P12, Dodecylamine]    0.010
CCCCCCCCCCCCCCCCN [P16, hexadecylamine]    0.008
CCCCCCCCCCCCCN(C)C [T13, N,N-dimethyltridecylamine]    0.025
